FYI, the data here is from ChEMBL document CHEMBL1828590.

- test_summary: Plasma protein binding in dog at 1000 ng/mL
- Type: ADME, cell-free, Canis lupus familiaris
- test_settings: read-out: PPB (converted)

| structure_string | fraction unbound at 1000 ng/mL |
| --- | --- |
| CCCCc1nc2cc(/C=C/C(=O)NO)ccc2n1CCN(CC)CC.Cl.Cl | 0.165 |

###

- Test system: COLO 205
- test_summary: Antiproliferative activity against human COLO205 cells after 96 hrs by celltiter 96 assay
- Format: functional, cell-based
- test_settings: COLO 205, 96 h
pIC50: −log10 of the molar value.
Lab note: anything with pIC50 at or over 6 counts as 1; the rest go in 0.

| molecule | class_name |
| --- | --- |
| CCCCCc1nc2cc(/C=C/C(=O)NO)ccc2n1CCNC(C)C | 1 |
| CCN(CC)CCn1c(CC2CC3CCC2C3)nc2cc(/C=C/C(=O)NO)ccc21 (stereo unspecified) | 1 |
| CCCCc1nc2cc(/C=C/C(=O)NO)ccc2n1C1CCCNC1 (stereo unspecified) | 0 |
| CCCCc1nc2cc(/C=C/C(=O)NO)ccc2n1CCCNC(C)C | 0 |
| CCCCCc1nc2cc(/C=C/C(=O)NO)ccc2n1CCNCC | 1 |
